TARGET_OR_SYSTEM: APMA activated MMP-9 (MMP-9(A)) (Homo sapiens, UniProt P14780)
Construct: made in house; host or cells: Sf9 and High Five insect cells
Sequence (P14780 107-707 limits assumed): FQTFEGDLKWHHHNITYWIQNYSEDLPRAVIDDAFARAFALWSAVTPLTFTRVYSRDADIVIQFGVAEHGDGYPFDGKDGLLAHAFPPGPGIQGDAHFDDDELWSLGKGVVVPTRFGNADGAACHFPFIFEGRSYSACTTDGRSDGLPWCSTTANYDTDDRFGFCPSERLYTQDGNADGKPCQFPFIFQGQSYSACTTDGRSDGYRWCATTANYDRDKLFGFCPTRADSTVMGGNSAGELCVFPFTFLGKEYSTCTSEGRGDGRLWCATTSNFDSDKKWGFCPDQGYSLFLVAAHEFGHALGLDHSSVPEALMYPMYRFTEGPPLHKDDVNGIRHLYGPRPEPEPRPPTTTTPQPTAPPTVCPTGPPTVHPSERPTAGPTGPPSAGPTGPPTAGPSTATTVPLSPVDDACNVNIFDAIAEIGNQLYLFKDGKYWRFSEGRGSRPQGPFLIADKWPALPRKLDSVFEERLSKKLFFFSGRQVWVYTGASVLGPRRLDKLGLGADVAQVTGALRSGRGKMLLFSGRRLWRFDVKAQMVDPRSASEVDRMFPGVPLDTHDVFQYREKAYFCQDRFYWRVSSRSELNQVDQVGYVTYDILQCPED
EXPERIMENTAL_PROTOCOL: Enzyme inhibition kinetics, fluorogenic substrate ES001
Format: biochemical
READOUT: pKi
Numbers only, as −log10 of the molar value.

Which measured pKi value corresponds to NC(=O)C(CCC(=O)O)NC(=O)C(CCC(=O)O)NC(=O)C(Cc1cc(-c2ccc(-c3cccc(Cl)c3)cc2)no1)CP(=O)(O)c1ccc(Br)cc1 (stereo not shown) ?
4.72

###

TARGET_OR_SYSTEM: aureolysin (ALN) (Staphylococcus aureus, UniProt P81177)
Construct: purchased BioCentrum Ltd (Kraków, Poland)
Sequence (P81177 209-509): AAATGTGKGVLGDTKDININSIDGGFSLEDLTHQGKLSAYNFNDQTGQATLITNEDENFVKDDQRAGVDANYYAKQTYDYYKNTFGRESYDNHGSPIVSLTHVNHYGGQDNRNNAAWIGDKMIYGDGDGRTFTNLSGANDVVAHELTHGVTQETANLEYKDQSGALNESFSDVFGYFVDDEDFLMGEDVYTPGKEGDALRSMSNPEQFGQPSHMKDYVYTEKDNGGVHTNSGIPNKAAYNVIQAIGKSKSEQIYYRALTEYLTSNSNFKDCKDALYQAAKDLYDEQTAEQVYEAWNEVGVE
EXPERIMENTAL_PROTOCOL: Enzyme inhibition kinetics, fluorogenic substrate ES005
Type: biochemical
MEASUREMENT_CONTEXT: ALN; 100 μM compound; in words
READOUT: inhibitory effect on enzymatic activity

[
  {
    "COMPOUND": "CC(NC(=O)OCc1ccccc1)P(=O)(O)CC(Cc1ccccc1)C(=O)O (stereo not shown)",
    "TARGET_OR_SYSTEM": "aureolysin (ALN) (Staphylococcus aureus, UniProt P81177)",
    "RESULT": "weak or no inhibition"
  },
  {
    "COMPOUND": "CC(=O)NC(CC(C)C)C(=O)CC(C)P(=O)(O)CC(Cc1ccccc1)C(=O)O (stereo not shown)",
    "TARGET_OR_SYSTEM": "aureolysin (ALN) (Staphylococcus aureus, UniProt P81177)",
    "RESULT": "weak or no inhibition"
  },
  {
    "COMPOUND": "CCOC(=O)C(CO)CP(=O)(O)C(Cc1ccccc1)NC(=O)OCc1ccccc1 (stereo not shown)",
    "TARGET_OR_SYSTEM": "aureolysin (ALN) (Staphylococcus aureus, UniProt P81177)",
    "RESULT": "weak or no inhibition"
  }
]

The reported numbers originate from paper PMC12316308.
